Data origin: patent US8450525B2

- Tested on: HDAC (Mouse Liver Extract)
- Construct: Mouse liver enzyme (10 mg/ml) was diluted 1:6 with HDAC buffer
- experimentSummary: HDAC inhibition assay using Boc-Lys(Ac)-AMC substrate, mouse liver enzyme
- Type: biochemical
- conditionsUsed: 10 μM
Please respond with reported HDAC Inhibition % (10 μM) for every item in the list.
Numbers only, in %.

Past entries and their recorded results:
[
  {
    "molecule": "O=C(/C=C/c1ccc(/C=C(/C(=O)NC2CC2)c2cccc(Cl)c2)cc1)NCc1ccc(C(=O)NO)cc1 [Example 91]",
    "endpointLabel": "HDAC Inhibition % (10 μM)",
    "reportedMeasurement": 100.0
  },
  {
    "molecule": "COc1ccc(/C(=C\\c2ccc(C(=O)Nc3ccccc3N)cc2)C(=O)Nc2ccccc2)c(OC)c1 [Example 122]",
    "endpointLabel": "HDAC Inhibition % (10 μM)",
    "reportedMeasurement": 54.1
  },
  {
    "molecule": "Nc1ccccc1NC(=O)c1ccc(/C=C(/C(=O)NC2CC2)c2cccs2)cc1 [Example 113]",
    "endpointLabel": "HDAC Inhibition % (10 μM)",
    "reportedMeasurement": 51.8
  },
  {
    "molecule": "COc1cccc(/C(=C\\c2ccc(C(=O)NO)cc2)C(=O)NC2CC2)c1 [Example 101]",
    "endpointLabel": "HDAC Inhibition % (10 μM)",
    "reportedMeasurement": 84.9
  },
  {
    "molecule": "Nc1ccccc1NC(=O)/C=C/c1ccc(/C=C(/C(=O)NC2CC2)c2ccc(C(F)(F)F)cc2)cc1 [Example 61]",
    "endpointLabel": "HDAC Inhibition % (10 μM)",
    "reportedMeasurement": 14.6
  },
  {
    "molecule": "COc1cccc(/C(=C\\c2ccc(/C=C/C(=O)NCc3ccc(C(=O)NO)cc3)cc2)C(=O)NC2CC2)c1 [Example 97]",
    "endpointLabel": "HDAC Inhibition % (10 μM)",
    "reportedMeasurement": 100.0
  },
  {
    "molecule": "Nc1ccccc1NC(=O)c1ccc(/C=C(/C(=O)NC2CC2)c2cccc(F)c2)cc1 [Example 110]",
    "endpointLabel": "HDAC Inhibition % (10 μM)",
    "reportedMeasurement": 71.4
  },
  {
    "molecule": "CN(C)C(=O)/C(=C/c1ccc(/C=C/C(=O)Nc2ccccc2N)cc1)c1ccc(F)cc1 [Example 60]",
    "endpointLabel": "HDAC Inhibition % (10 μM)",
    "reportedMeasurement": 34.2
  }
]

Kindly give each listed record's HDAC Inhibition % (10 μM).
1. O=C(/C=C/c1cccc(/C(=C\c2ccc(F)cc2)C(=O)NC2CC2)c1)NO [Example 40]
2. CC(C)NC(=O)/C(=C/c1ccc(/C=C/C(=O)NO)cc1)c1cccc(F)c1 [Example 22]

1: 97.9; 2: 97.9

----------
- System: HDAC (Mouse Liver Extract)
- Construct: Mouse liver enzyme (10 mg/ml) was diluted 1:6 with HDAC buffer
- experimentSummary: HDAC inhibition assay using Boc-Lys(Ac)-AMC substrate, mouse liver enzyme
- Assay type: biochemical
- conditionsUsed: 1 μM
- Source text: Histone Deacetylase (HDAC) Inhibition Assay using Boc-Lys (Ac)-AMC Substrate: Inhibition of HDAC has been implicated to modulate transcription and to induce apoptosis or differentiation in cancer cells. The fluorometric assay provides a fast and fluorescence based method that eliminates radioactivity, extractions or chromatography, as used in traditional assays. The assay is based on two steps. […]
Please mark YES if the recorded HDAC Inhibition % (1 μM) is equal to or greater than 50%, and NO if it falls below.

[
  {
    "smilesData": "O=C(/C=C/c1ccc(/C=C(/C(=O)NC2CC2)c2ccccc2F)cc1)NCCCCCC(=O)NO",
    "cat": "YES"
  },
  {
    "smilesData": "COc1ccc(/C(=C\\c2ccc(/C=C/C(=O)NO)cc2)C(=O)NC2CC2)cc1",
    "cat": "YES"
  },
  {
    "smilesData": "O=C(/C=C/c1ccc(/C=C(/C(=O)NC2CC2)c2ccc3c(c2)OCO3)cc1)NCCCCCC(=O)NO",
    "cat": "YES"
  },
  {
    "smilesData": "O=C(NC1CC1)/C(=C/c1ccc(C(=O)NCc2ccc(C(=O)NO)cc2)cc1)c1ccccc1",
    "cat": "YES"
  },
  {
    "smilesData": "Nc1ccccc1NC(=O)/C=C/c1ccc(/C=C(/C(=O)NC2CC2)c2ccc(F)cc2)cc1",
    "cat": "NO"
  },
  {
    "smilesData": "Nc1ccccc1NC(=O)c1ccc(/C=C(/C(=O)NC2CC2)c2cccs2)cc1",
    "cat": "NO"
  }
]

Kindly review the next compound as well.
Exam item: decide whether the reported HDAC Inhibition % (1 μM) for O=C(/C=C/c1ccc(/C=C(/C(=O)NC2CC2)c2ccc(F)cc2)cc1)NCc1ccc(C(=O)NO)cc1 is at least 50%. NO
